study-system: UniProt P43405
test-summary: Inhibition of human SYK using 5-Fluo-Ahx-GAPDYENLQELNKK-Amid as substrate in presence of ATP by microfluidic mobility shift assay
test-readout: pIC50
Expect pIC50 as a plain number equal to -log10 of the molar concentration.

(Q) Answer with reported pIC50 of NC(=O)c1nnc(N[C@@H]2CCCC[C@@H]2N)nc1Nc1cccc2[nH]ncc12
(A) 9.10

(Q) Answer with reported pIC50 of N#Cc1c[nH]c2c(Nc3nc(N[C@@H]4CCCCC4N)nnc3C(N)=O)cccc12 (single isomer, unassigned)
(A) 9.10

(Q) Answer with reported pIC50 of Cc1c[nH]c2c(Nc3nc(N[C@@H]4CCCC[C@@H]4N)nnc3C(N)=O)cccc12
(A) 9.10

Ref: ChEMBL document CHEMBL5260813
